# test: Dose determination study (body weight change, maximum tolerated dose)
# Format: in vivo
# runParameters: mouse, in vivo, oral, nude mice, peroral, half value of the toxicity expression dose
parameterMeasured: MTD at 14 days (mg/kg)
Please give a number only; it is taken to be in mg/kg.

// field: MTD at 14 days; key: COc1cc2nccc(Oc3ccc(NC(=S)NC(=O)Cc4ccccc4)cc3F)c2cc1OC [Comp. Ex. 1, reference compound] ; value = 100

---

# testedSystem: c-Met (Homo sapiens)
# test: c-Met inhibitory assay using DeskTop Profiler (Method B)
# Assay type: biochemical
# Parameters: made in house
# runParameters: ATP 43 μM
# Sequence (P08581 25-1390): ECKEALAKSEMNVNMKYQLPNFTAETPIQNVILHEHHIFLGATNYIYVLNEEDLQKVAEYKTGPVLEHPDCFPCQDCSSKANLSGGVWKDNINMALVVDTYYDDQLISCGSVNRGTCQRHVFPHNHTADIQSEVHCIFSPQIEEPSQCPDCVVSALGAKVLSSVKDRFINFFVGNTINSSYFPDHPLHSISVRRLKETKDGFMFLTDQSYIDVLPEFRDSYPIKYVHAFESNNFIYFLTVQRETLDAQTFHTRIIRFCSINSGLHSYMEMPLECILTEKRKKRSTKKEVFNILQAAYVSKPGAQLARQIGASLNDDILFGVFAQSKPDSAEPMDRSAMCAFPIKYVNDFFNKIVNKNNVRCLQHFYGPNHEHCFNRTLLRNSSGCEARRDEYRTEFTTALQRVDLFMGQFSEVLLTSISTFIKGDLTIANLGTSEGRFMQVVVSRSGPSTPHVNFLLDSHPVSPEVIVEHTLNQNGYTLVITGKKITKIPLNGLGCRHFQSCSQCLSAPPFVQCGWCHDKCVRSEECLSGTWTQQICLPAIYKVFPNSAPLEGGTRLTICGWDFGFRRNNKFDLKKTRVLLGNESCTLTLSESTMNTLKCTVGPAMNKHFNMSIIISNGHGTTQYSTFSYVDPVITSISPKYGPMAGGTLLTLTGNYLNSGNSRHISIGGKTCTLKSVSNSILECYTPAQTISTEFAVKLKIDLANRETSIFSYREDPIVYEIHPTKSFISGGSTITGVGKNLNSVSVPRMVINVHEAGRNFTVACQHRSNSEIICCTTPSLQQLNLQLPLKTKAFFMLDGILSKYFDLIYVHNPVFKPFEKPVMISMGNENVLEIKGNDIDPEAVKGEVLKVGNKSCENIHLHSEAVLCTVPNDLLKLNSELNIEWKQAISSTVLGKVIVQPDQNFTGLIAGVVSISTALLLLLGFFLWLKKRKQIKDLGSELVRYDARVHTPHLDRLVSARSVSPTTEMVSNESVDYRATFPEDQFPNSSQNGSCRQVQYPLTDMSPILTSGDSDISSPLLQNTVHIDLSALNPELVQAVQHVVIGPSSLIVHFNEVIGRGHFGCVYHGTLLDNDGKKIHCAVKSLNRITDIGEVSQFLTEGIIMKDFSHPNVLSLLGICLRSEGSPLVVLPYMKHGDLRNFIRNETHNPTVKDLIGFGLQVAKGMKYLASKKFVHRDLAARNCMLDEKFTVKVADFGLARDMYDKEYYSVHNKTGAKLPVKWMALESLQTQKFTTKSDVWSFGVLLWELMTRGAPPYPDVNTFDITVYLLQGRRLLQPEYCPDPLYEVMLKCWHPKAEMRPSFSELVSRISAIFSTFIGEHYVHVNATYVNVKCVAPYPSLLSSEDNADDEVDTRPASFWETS
parameterMeasured: IC50 (nM)
Please give a number only; it is taken to be in nM.

Please review the following examples before continuing.
>>> number("CC[C@@H](CO)NC(=O)c1cc2c(Oc3ccc(NC(=S)NC(=O)Cc4ccc(Cl)cc4)cc3F)ccnc2cc1OC [Example 43]")
50
>>> number("COCCNC(=O)CNC(=O)c1cc2c(Oc3ccc(NC(=S)NC(=O)Cc4ccccc4)cc3F)ccnc2cc1OC [Example 33]")
12

// field: IC50; key: COc1cc2nccc(Oc3ccc(NC(=S)NC(=O)Cc4ccccc4F)cc3F)c2cc1C(=O)NCC(C)(C)O [Example 39] ; value = 29

// field: IC50; key: CCN(CC(C)(C)O)C(=O)CNC(=O)c1cc2c(Oc3ccc(NC(=S)NC(=O)Cc4ccccc4)cc3F)ccnc2cc1OC [Example 35] ; value = 31

// field: IC50; key: COc1cc2nccc(Oc3ccc(NC(=S)NC(=O)Cc4c(F)cccc4F)cc3F)c2cc1C(=O)NCC(C)(C)O [Example 45] ; value = 56

// field: IC50; key: CNC(=O)c1cc2c(Oc3ccc(NC(=S)NC(=O)Cc4ccccc4)cc3Cl)ccnc2cc1OC [Example 48] ; value = 34

// field: IC50; key: COc1cc2nccc(Oc3ccc(NC(=S)NC(=O)Cc4ccc(Cl)cc4)cc3F)c2cc1C(=O)NCC(C)(C)O [Example 42] ; value = 45

---

Measured IC50, listed per entry.
# testedSystem: c-Met (Homo sapiens)
# test: c-Met inhibitory assay using AlphaScreen (Method A)
# Format: biochemical
# Set-up: purchased Carna bio Co., Ltd 08-051
# runParameters: ATP 20 μM
# Sequence (P08581 956-1390 limits assumed): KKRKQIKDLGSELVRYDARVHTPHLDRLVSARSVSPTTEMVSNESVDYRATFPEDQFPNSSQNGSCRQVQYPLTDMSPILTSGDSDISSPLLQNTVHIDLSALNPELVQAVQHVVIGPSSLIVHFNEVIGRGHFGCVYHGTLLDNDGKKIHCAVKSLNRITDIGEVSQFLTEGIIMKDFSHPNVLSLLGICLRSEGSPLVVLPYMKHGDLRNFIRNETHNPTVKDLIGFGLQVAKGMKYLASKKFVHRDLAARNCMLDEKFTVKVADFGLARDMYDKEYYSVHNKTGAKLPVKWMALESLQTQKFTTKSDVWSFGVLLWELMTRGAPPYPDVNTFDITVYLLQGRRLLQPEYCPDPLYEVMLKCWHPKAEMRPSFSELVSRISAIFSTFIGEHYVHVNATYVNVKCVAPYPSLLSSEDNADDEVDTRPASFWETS
Please give a number only; it is taken to be in nM.

Please review the following examples before continuing.
>>> number("COc1cc2nccc(Oc3ccc(NC(=S)NC(=O)Cc4ccc(F)cc4)cc3F)c2cc1C(=O)NC1CCCCNC1=O (stereo not shown)")
338
>>> number("COc1cc2nccc(Oc3ccc(NC(=S)NC(=O)Cc4ccccc4)cc3F)c2cc1C(=O)N1CCC(O)C1 (stereo not shown)")
142
>>> number("COc1cc2nccc(Oc3ccc(NC(=S)NC(=O)Cc4ccccc4)cc3F)c2cc1C(=O)NCCNC(C)=O")
145

Sample `COc1cc2nccc(Oc3ccc(NC(=S)NC(=O)Cc4ccccc4)cc3F)c2cc1C(=O)N[C@H](CO)c1ccccc1` , system: c-Met (Homo sapiens). Its IC50 is 234

Sample `CNC(=O)c1cc2c(Oc3ccc(NC(=S)NC(=O)Cc4ccccc4)cc3F)ccnc2cc1OC` , system: c-Met (Homo sapiens). Its IC50 is 104

---

# testedSystem: c-Met (Homo sapiens, UniProt P08581)
# test: c-Met inhibitory assay using AlphaScreen (Method A)
# Format: biochemical
# Set-up: purchased Carna bio Co., Ltd 08-051
# runParameters: ATP 20 μM
pIC50: −log10 of the molar value.
Assign 1.0 to entries whose pIC50 meets or exceeds 7; assign 0.0 to the rest.

Example entries begin here.
>>> assignedlabel("COc1cc2nccc(Oc3ccc(NC(=S)NC(=O)Cc4ccccc4)cc3F)c2cc1C(=O)NCCS(C)(=O)=O")
1.0
>>> assignedlabel("COc1cc2nccc(Oc3ccc(NC(=S)NC(=O)Cc4ccccc4)cc3F)c2cc1C(=O)NCCCOC(C)C")
0.0
>>> assignedlabel("COc1cc2nccc(Oc3ccc(NC(=S)NC(=O)Cc4ccccc4)cc3F)c2cc1C(=O)NC1CCN(C(C)=O)CC1")
0.0

QUERY: API: above_or_equal(metric=pIC50, cutoff=7) for item COc1cc2nccc(Oc3ccc(NC(=S)NC(=O)Cc4ccccc4)cc3F)c2cc1C(=O)NC1CCCCNC1=O (centres unmarked)
RESULT: 0.0

QUERY: API: above_or_equal(metric=pIC50, cutoff=7) for item `COc1cc2nccc(Oc3ccc(NC(=S)NC(=O)Cc4ccccc4)cc3F)c2cc1C(=O)NCC(=O)N1CCCC1`
RESULT: 1.0

QUERY: API: above_or_equal(metric=pIC50, cutoff=7) for item CCC(O)CNC(=O)c1cc2c(Oc3ccc(NC(=S)NC(=O)Cc4ccc(F)cc4)cc3F)ccnc2cc1OC (centres unmarked)
RESULT: 0.0

QUERY: API: above_or_equal(metric=pIC50, cutoff=7) for item COc1cc2nccc(Oc3ccc(NC(=S)NC(=O)Cc4ccccc4)cc3F)c2cc1C(=O)NCC1COC(C)(C)O1 (centres unmarked)
RESULT: 0.0

QUERY: API: above_or_equal(metric=pIC50, cutoff=7) for item `COCCNC(=O)c1cc2c(Oc3ccc(NC(=S)NC(=O)Cc4ccccc4)cc3F)ccnc2cc1OC`
RESULT: 1.0

QUERY: API: above_or_equal(metric=pIC50, cutoff=7) for item `COc1cc2nccc(Oc3ccc(NC(=S)NC(=O)Cc4ccccc4)cc3F)c2cc1C(=O)NCC(C)(C)O`
RESULT: 1.0

QUERY: API: above_or_equal(metric=pIC50, cutoff=7) for item `COc1cc2nccc(Oc3ccc(NC(=S)NC(=O)Cc4ccccc4)cc3F)c2cc1C(=O)NCC(=O)N(C)C`
RESULT: 0.0

QUERY: API: above_or_equal(metric=pIC50, cutoff=7) for item COc1cc2nccc(Oc3ccc(NC(=S)NC(=O)Cc4ccccc4)cc3F)c2cc1C(=O)NCC(O)c1nnn(C)n1 (centres unmarked)
RESULT: 1.0

---

Measured IC50, listed per entry.
# testedSystem: UniProtKB P08581
# test: c-Met inhibitory assay using AlphaScreen (Method A)
# Format: biochemical
# Design: purchased Carna bio Co., Ltd 08-051
# runParameters: ATP 20 μM
Counter-ions that a name gives are not always drawn.
Please give a number only; it is taken to be in nM.

Please review the following examples before continuing.
>>> number("COc1cc2nccc(Oc3ccc(NC(=S)NC(=O)Cc4ccccc4)cc3F)c2cc1C(=O)NC1CCNCC1 [Example 14, dihydrochloride]")
157
>>> number("COc1cc2nccc(Oc3ccc(NC(=S)NC(=O)Cc4ccccc4)cc3F)c2cc1C(=O)Nc1ccccc1C [Example 28]")
94
>>> number("COc1cc2nccc(Oc3ccc(NC(=S)NC(=O)Cc4ccccc4)cc3F)c2cc1C(=O)NCCOCCO [Example 10]")
68

Now let's try a different one.
// field: IC50; key: COc1cc2nccc(Oc3ccc(NC(=S)NC(=O)Cc4ccccc4)cc3F)c2cc1C(=O)NCC(=O)N1CCOCC1 [Example 21] ; value = 118

---

Measured pIC50, listed per entry.
# testedSystem: UniProtKB P08581
# test: c-Met inhibitory assay using AlphaScreen (Method A)
# Assay type: biochemical
# Design: purchased Carna bio Co., Ltd 08-051
# runParameters: ATP 20 μM
Expect pIC50 as a plain number equal to -log10 of the molar concentration.

Please review the following examples before continuing.
>>> number("CCNC(=O)N1CCC(NC(=O)c2cc3c(Oc4ccc(NC(=S)NC(=O)Cc5ccccc5)cc4F)ccnc3cc2OC)CC1")
6.86
>>> number("COc1cc2nccc(Oc3ccc(NC(=S)NC(=O)Cc4ccccc4)cc3F)c2cc1C(=O)NCC1(O)CCCCC1")
7.14
>>> number("COc1cc2nccc(Oc3ccc(NC(=S)NC(=O)Cc4ccccc4)cc3F)c2cc1C(=O)NCC(O)CO (centres unmarked)")
7.21
>>> number("CCN(CC)CCNC(=O)c1cc2c(Oc3ccc(NC(=S)NC(=O)Cc4ccccc4)cc3F)ccnc2cc1OC")
6.97

Now let's try a different one.
// field: pIC50; key: `COc1cc2nccc(Oc3ccc(NC(=S)NC(=O)Cc4ccccc4)cc3F)c2cc1C(=O)NCc1cccnc1` ; value = 6.85
